Documented melting point across a set of compounds

Cc1cccc(-c2[nH]c(C(C)C)nc2-c2ccc(F)c(-c3ccc(S(C)=O)nc3)c2)n1 (stereo not given); 100 to 102 °C
Cc1cc(C(F)(F)F)c2cccc(O)c2n1; 60 to 61 °C
C[C@](O)(CNC(=O)c1cnc(OCC(F)(F)F)c(-c2ccc(Cl)cc2)n1)C1CC1; 96 to 97 °C
CCOC(=O)c1cc(OCC)c(OCC)cc1N; 69 to 71 °C
Cc1ccc(Cl)cc1NS(=O)(=O)c1cc(S(=O)(=O)Nc2cc(Cl)ccc2C)c2ccccc2c1; 125 to 127 °C
CCCCCCCCCCCCN(CCCCCCCCCCCC)C(=O)c1c(C)cc(C)c(C)c1O; 56 °C

Prompt line: What does the record list as melting point for NC(=O)c1[nH]cnc1OC(=O)C=Cc1ccccc1 ?
Response line: 170 to 175 °C

Prompt line: What does the record list as melting point for O=C1COc2ccc3c(c2N1)C(=O)CC3 ?
Response line: 136 to 139 °C

Prompt line: What does the record list as melting point for CNC(=O)NC(=S)N1N=C(c2ccc([N+](=O)[O-])cc2)c2cc3c(cc2CC1C)OCO3 (stereo not given) ?
Response line: 164 °C

---

Documented melting point across a set of compounds

Examples from the recorded data:
O=S(=O)(c1ccc(Nc2nccc(Nc3ccc(F)cc3)n2)cc1)N(CCN1CCCC1)[C@H]1CC[C@H](O)CC1; 135 °C
CCOC(=O)C(=O)Nc1nnc2c3c(c(N4CCCCC4)nn12)CCCC3; 168 to 169 °C
CN(C)CC1CN(C)C(=S)c2cccnc2O1 (stereo not given); 178 to 179 °C
CCOC(=O)c1ccc(COCc2csc3nc(C(=O)NCc4cccc(CS(C)=O)c4)[nH]c(=O)c23)cc1 (stereo not given); 195 to 196 °C
CCCc1c(OCCCCCCc2cccc(OCCCCCCC(=O)O)c2CCC(=O)O)ccc2c1OCCC2=O; 91 to 93 °C
CC(C)(C)OC(=O)NCC(=O)N1[C@@H](C(=O)OC(C)(C)C)C[C@H](S(=O)(=O)c2ccccc2)[C@H]1c1ccccc1F (racemic); 134 °C
CC1(C)Cc2c(cc(C(C)(C)C)c(O)c2C(C)(C)C)S1; 79 °C
COC(=O)CN1CCN2C(Cc3cc(OC)c(OC)cc3C2c2ccccc2)C1 (stereo not given); 110 to 113 °C
CCCCCCCCCCCCCCCCSCC(CNS(=O)(=O)CCCI)NC(=O)OC (stereo not given); 79 to 81 °C
O=C(Nc1ccn(CC(O)CF)c(=O)n1)c1ccccc1 (racemic); 205 °C

Prompt line: What does the record list as melting point for COc1cccc2cc(C)c(C)nc12 ?
Response line: 138 to 139 °C

Prompt line: What does the record list as melting point for OCc1cc(Br)cc(I)c1 ?
Response line: 110 to 112 °C

Prompt line: What does the record list as melting point for CCOC(=O)c1cccc2nc(CC)n(Cc3ccc(-c4ccccc4-c4nnn[nH]4)cc3)c12 ?
Response line: 188 to 189 °C

Prompt line: What does the record list as melting point for CCOC(=O)Nc1nc(-c2ccccc2)c(-c2nc3ccccc3c(=O)n2-c2ccc(Cl)cc2)s1 ?
Response line: > 275 °C

Prompt line: What does the record list as melting point for CCOC(=O)c1ncc2[nH]c3c([N+](=O)[O-])cc([N+](=O)[O-])cc3c2n1 ?
Response line: 295 to 299 °C

---

Documented melting point across a set of compounds

Examples from the recorded data:
Cc1cccc(NC(=O)NC2N=C(C3CCCCC3)c3cccc(C)c3N(C)C2=O)c1 (centres undefined); 196 to 198 °C
CCOC(=O)c1cncc(O)c1; 150 °C
CCOC(=O)C1(C)C(=O)Nc2cc(NC(=O)c3ccncc3)ccc21 (centres undefined); 222 to 224 °C

Next up:
Prompt line: What does the record list as melting point for COc1ccc(CCC(=O)Nc2nc3c(s2)CCN(CC=Cc2cccnc2)CC3)cc1 ?
Response line: 168 to 170 °C

---

Documented melting point across a set of molecules

Examples from the recorded data:
CC(=O)OC1CCC2C3CCc4cc(O)c(C=O)cc4C3CCC12C (stereo unspecified); 184 °C
NC(=O)NC1CCN(Cc2ccc3ccccc3c2)CC1; 183 to 185 °C
Nc1cccnc1Nc1cc(Cl)ccc1C(=O)c1ccccc1; 153 to 155 °C
Cn1nc(C(F)(F)F)c(C(=O)O)c1F; 165 to 166 °C
CCC(OC(C)=O)c1ccc(Cl)c2nc3n(c12)CCCN3c1cnc(N(C)C)cc1C (stereo unspecified); 159 to 160 °C

Prompt line: What does the record list as melting point for CCCCC(C(=O)O)c1cccc(Oc2ccccc2C)c1O (stereo unspecified) ?
Response line: 83 to 84 °C

Prompt line: What does the record list as melting point for O=C(NCCCc1ccncc1)N(CCC(F)(F)F)CCC12CC3CC(CC(C3)C1)C2 ?
Response line: 108 to 109 °C

Prompt line: What does the record list as melting point for N#Cc1c[nH]c2cccc(OCC3CO3)c12 (stereo unspecified) ?
Response line: 116 to 120 °C

Prompt line: What does the record list as melting point for CCCCCCCCC(C)C(=O)NCl (stereo unspecified) ?
Response line: 56 to 57 °C

---

Documented melting point across a set of molecules

CSc1[nH]n(-c2c(Cl)cc(Cl)cc2Cl)c2nc(Cc3cccc(O)c3)nc(=O)c1-2; 264 to 266 °C
CS(=O)(=O)COC(=O)c1oc(-c2ccccc2)cc(=O)c1Br; 192 °C

Prompt line: What does the record list as melting point for Cc1cccc(NC(=O)c2cn(-c3ccccc3)c3ccccc3c2=O)n1 ?
Response line: 273 to 274 °C

---

Measurement label: melting point

Examples from the recorded data:
Clc1ccc(C2Cc3cnc(Nc4ccc(CCN5CCCCC5)cc4)nc3-c3ccccc32)cc1Cl (centres undefined); 157 to 158 °C
CC(=C(C#N)C(=O)c1ccc(F)cc1)N(C)C; 65 to 67 °C
CS(=O)(=O)c1ccc(-c2cnn(CC(F)=C(F)F)c(=O)c2-c2ccc(F)cc2)cc1; 154 to 156 °C
CSc1ncc(CNc2ccccc2Cl)c(Nc2ccccc2)n1; 131 to 132 °C
CCC(=C(N)N)[N+](=O)[O-]; 114 to 116 °C
O=C(c1ccc(F)cc1)C1CCN(CCN(C(=O)c2cccc([N+](=O)[O-])c2)c2ccc(F)cc2)CC1; 97 to 113 °C

Prompt line: What does the record list as melting point for Cc1noc(C2CN=CN(C(c3ccccc3)(c3ccccc3)c3ccccc3)C2)n1 (centres undefined) ?
Response line: 72 to 74 °C

Prompt line: What does the record list as melting point for Cc1cc(F)ccc1-c1ccc(S(=O)(=O)N2c3ccccc3CC2C(=O)NCCOc2ccc(C(=O)O)cc2)cc1 (centres undefined) ?
Response line: 96 °C

Prompt line: What does the record list as melting point for Cc1cc(Cl)ccc1NC(=O)c1cccc(S(=O)(=O)N(C)c2ccc(Br)cc2)c1 ?
Response line: 163 to 164 °C

---

Documented melting point across a set of compounds

O=C1N(CC2COCCO2)c2ccccc2C12COc1cc3c(cc12)OCCO3 (stereo not drawn); 198 to 199 °C
O=C(NCCO)/C(=C/c1ccc(OC(F)F)cc1)NC(=O)c1ccc(OCCC2CC2)cc1; 153 to 155 °C
Oc1ccc(O[C@@H]2CCNC[C@H]2O)cc1 (relative stereo); 176 to 178 °C
O=C(CC1C(=O)CCc2ccccc21)c1ccccc1 (stereo not drawn); 48 to 52 °C
Cc1ccc(C(=O)NC(NC(=S)Nc2cccc([N+](=O)[O-])c2)C(F)(F)F)cc1 (stereo not drawn); 185 to 186 °C

Prompt line: What does the record list as melting point for COC(=O)c1ccccc1-c1nc2cc(C)ccc2o1 ?
Response line: 135 to 138 °C

Prompt line: What does the record list as melting point for CCOCc1nc2cnc3cc(-c4ccccc4)ccc3c2n1CCOc1ccccc1 ?
Response line: 137 to 138 °C

Prompt line: What does the record list as melting point for CC(=O)c1cc2c(s1)C(NC(=O)c1ccc([N+](=O)[O-])cc1)C(O)C(C)(C)O2 (stereo not drawn) ?
Response line: 223 to 225 °C

Prompt line: What does the record list as melting point for CCCCCCNC1=NS(=O)(=O)c2sc(Cl)cc2N1 ?
Response line: 207 to 209 °C

Prompt line: What does the record list as melting point for CC(=O)NNC1=Nc2sc(Cl)cc2C(c2ccccc2Cl)=NC1 ?
Response line: 211 to 213 °C

Prompt line: What does the record list as melting point for CCCCOC(=O)c1ccc2nc(N)[nH]c2c1 ?
Response line: 183 to 185 °C

Prompt line: What does the record list as melting point for Clc1ccc(C2CCN(Cc3cncc(-c4ccccc4)c3)CC2)cc1 ?
Response line: 142 to 143 °C

Prompt line: What does the record list as melting point for CCCc1c(OCCCOc2ccc(C(=O)OCC)cc2F)ccc(C(C)=O)c1O ?
Response line: 87 to 88 °C

Prompt line: What does the record list as melting point for COc1cc(OC)nc(Sc2sccc2NS(=O)(=O)C(F)(F)F)n1 ?
Response line: 103 to 104 °C

Prompt line: What does the record list as melting point for COc1ccccc1N1CCN(CCNCCCN2CC=C(c3c[nH]c4cc(Cl)ccc34)CC2)CC1 ?
Response line: 71 to 73 °C

Prompt line: What does the record list as melting point for C/C(=C\CNc1ncnc2nc(N(C)C)[nH]c12)CO ?
Response line: 245 to 249 °C

Prompt line: What does the record list as melting point for C=CCOC(=O)c1cccc(NC(=O)NCNC(=O)c2ccccc2C(=O)c2ccccc2)c1 ?
Response line: 68 to 71 °C

Prompt line: What does the record list as melting point for COc1cc2c(N3CCN(Cc4ccccc4)CC3)nc(-c3ccc(Cl)cc3)nc2c(OC)c1OC ?
Response line: 150 °C
